Reference source for all entries: patent US20210380703A1

# System Tested: T1, biotinylated goat anti-human kappa light chain
# T1 construct: positive control of the ELISA
# Assay Protocol: ELISA, positive control; note: test concentration or dose not given here
Each entry below carries its reported optical density.
Value expressed in OD; do not type the unit.

375_G08 (antibody, V domains shown, Group II) VH: EVQLLESGGGLVQPGGSLRLSCAASGFTFSSYGMHWVRQAPGKGLEWVSGINYNGGYTSYADSVKGRFTISRDNSKNTLYLQMNSLRAEDTAVYYCARAATWHDTHLDYWGQGTLVTVSS VL: DIQMTQSPSSLSASVGDRVTITCRASQSISSYVNWYQQKPGKAPKLLIYAVTSRASGVPSRFSGSGSGTDFTLTISSLQPEDFATYYCQQSYSTPLTFGGGTKVEIK = 3.27

From here, focus on the item given below.
Task: Can you share its optical density? I mean this binder: 367_E08 (antibody, V domains shown, Group II) VH: EVQLLESGGGLVQPGGSLRLSCAASGFTFSDYGMNWVRQAPGKGLEWVASINYNGGYTSYADSVKGRFTISRDNSKNTLYLQMNSLRAEDTAVYYCARAATWHDTHLDYWGQGTLVTVSS VL: DIQMTQSPSSLSASVGDRVTITCRASQSILSYLNWYQQKPGKAPKLLIYATTSRASGVPSRFSGSGSGTDFTLTISSLQPEDFATYYCQQSYDNPLTFGGGTKVEIK
Output: 3.43
